The reported measurements were obtained from patent US10221173B2.

Experiment: Human plasma protein binding (equilibrium dialysis)
Assay type: in vitro ADME
Strictly below 2 % free in Human plasma protein binding (% free): Condition met. Otherwise: Condition not met.

- molecule: "C[C@@H]1Cc2c([nH]c3ccccc23)[C@@H](c2c(F)cnc(OCCNCCCF)c2F)N1CC1(F)CC1 [Example 108]"
  classification: "Condition not met"
- molecule: "C[C@@H]1Cc2c([nH]c3ccccc23)[C@@H](c2nccc(NCCNCCCF)c2F)N1CC(F)(F)F [Example 94]"
  classification: "Condition not met"
- molecule: "CCc1ccc(OCCNCCCF)cc1[C@@H]1c2[nH]c3ccccc3c2C[C@@H](C)N1CC(F)(F)F [Example 21]"
  classification: "Condition met"
- molecule: "C[C@@H]1Cc2c([nH]c3ccccc23)[C@@H](c2c(F)cnc(OCCNCCCF)c2Cl)N1CC(F)(F)CO [Example 111]"
  classification: "Condition met"
- molecule: "COCc1ccc(OCCNCCCF)cc1[C@@H]1c2[nH]c3ccccc3c2C[C@@H](C)N1CC(F)(F)F [Example 71]"
  classification: "Condition met"
- molecule: "C[C@@H]1Cc2c([nH]c3ccccc23)[C@@H](c2cc(OCCNCCCF)ccc2Cl)N1CC(F)(F)F [Example 22]"
  classification: "Condition met"
- molecule: "C[C@@H]1Cc2c([nH]c3ccccc23)[C@@H](c2cccc(OCCNCCCF)c2Cl)N1CC(F)(F)F [Example 25]"
  classification: "Condition met"
- molecule: "Cc1ccc2[nH]c3c(c2c1)C[C@@H](C)N(CC(F)(F)CO)[C@@H]3c1c(F)cnc(OCCNCCCF)c1F [Example 66]"
  classification: "Condition met"
- molecule: "COc1ccc(OCCNCCCF)nc1[C@@H]1c2[nH]c3ccccc3c2C[C@@H](C)N1CC(F)(F)F [Example 56]"
  classification: "Condition not met"
- molecule: "COc1ncc(NCCNCCCF)cc1[C@@H]1c2[nH]c3ccccc3c2C[C@@H](C)N1CC(F)(F)F [Example 41]"
  classification: "Condition met"
- molecule: "Cc1c(OCCNCCCF)ccc(F)c1[C@@H]1c2[nH]c3ccccc3c2C[C@@H](C)N1CCC#N [Example 87]"
  classification: "Condition met"
- molecule: "C[C@@H]1Cc2c([nH]c3c(F)cccc23)[C@@H](c2c(F)ccc(OCCNCCCF)c2F)N1CC(F)(F)CO [Example 60]"
  classification: "Condition met"
- molecule: "Cc1c(NCCNCCCF)ccnc1[C@@H]1c2[nH]c3ccccc3c2C[C@@H](C)N1CC(F)(F)F [Example 95]"
  classification: "Condition not met"
- molecule: "Cc1c(OCCN(C)CCCF)ccc(F)c1[C@@H]1c2[nH]c3ccccc3c2C[C@@H](C)N1CCC(=O)O [Example 163]"
  classification: "Condition not met"
- molecule: "C[C@@H]1Cc2c([nH]c3ccccc23)[C@@H](c2cc(OCCNCCCF)cc(F)c2F)N1CC(F)(F)F [Example 30]"
  classification: "Condition met"
- molecule: "COc1ccc(OCCNCCCF)c(F)c1[C@@H]1c2[nH]c3ccccc3c2C[C@@H](C)N1CC(F)F [Example 82]"
  classification: "Condition met"
- molecule: "C[C@@H]1Cc2c([nH]c3ccccc23)[C@@H](c2c(F)ccc(OCCNCCCF)c2F)N1CC(F)F [Example 51]"
  classification: "Condition not met"
- molecule: "C[C@@H]1Cc2c([nH]c3ccccc23)[C@@](C)(c2cccc(OCCNCCCF)c2)N1CC(F)(F)F [Example 75]"
  classification: "Condition met"
- molecule: "C[C@@H]1Cc2c([nH]c3ccccc23)[C@@H](c2cccc(OCCNCCCF)n2)N1CC(F)(F)F [Example 34]"
  classification: "Condition not met"
- molecule: "Cc1c(OCCN(C)CCCF)ncc(F)c1[C@@H]1c2[nH]c3ccccc3c2C[C@@H](C)N1C(C)CC(=O)O (single isomer, unassigned) [Example 158]"
  classification: "Condition not met"
- molecule: "Cc1c(OCCNCCCF)ccnc1[C@@H]1c2[nH]c3ccccc3c2C[C@@H](C)N1CC(F)(F)CO [Example 96]"
  classification: "Condition not met"
- molecule: "Cc1c(OCCNCCCF)ccc(F)c1[C@@H]1c2[nH]c3ccccc3c2C[C@@H](C)N1CC(F)(F)C(=O)O [Example 118]"
  classification: "Condition not met"
- molecule: "Cc1c(N(C)CCNCCCF)ccc(F)c1[C@@H]1c2[nH]c3ccccc3c2C[C@@H](C)N1C[C@H](C)C(=O)O [Example 136]"
  classification: "Condition not met"
- molecule: "Cc1c(OCCNCCC(F)F)ccc(F)c1[C@@H]1c2[nH]c3ccc(F)cc3c2C[C@@H](C)N1C[C@@H](C)C(=O)O [Example 162]"
  classification: "Condition not met"
- molecule: "Cc1c(OCCN(C)CCCF)ccc(F)c1[C@@H]1c2[nH]c3ccccc3c2C[C@@H](C(F)(F)F)N1C[C@H](C)C(=O)O [Example 149]"
  classification: "Condition not met"
- molecule: "COc1ccc(OCCNCCCF)cc1[C@@H]1c2[nH]c3ccc(F)cc3c2C[C@@H](C)N1CC(F)(F)CO [Example 46]"
  classification: "Condition not met"
- molecule: "C[C@@H]1Cc2c([nH]c3ccccc23)[C@@H](c2c(F)ccc(OCCNCCCF)c2F)N1CC1(S(C)(=O)=O)CC1 [Example 77]"
  classification: "Condition not met"

* * *

Molecular target: Estrogen Receptor (ERα) in MCF-7 cells (Homo sapiens (Human), UniProt P03372)
Sequence (P03372 whole entry): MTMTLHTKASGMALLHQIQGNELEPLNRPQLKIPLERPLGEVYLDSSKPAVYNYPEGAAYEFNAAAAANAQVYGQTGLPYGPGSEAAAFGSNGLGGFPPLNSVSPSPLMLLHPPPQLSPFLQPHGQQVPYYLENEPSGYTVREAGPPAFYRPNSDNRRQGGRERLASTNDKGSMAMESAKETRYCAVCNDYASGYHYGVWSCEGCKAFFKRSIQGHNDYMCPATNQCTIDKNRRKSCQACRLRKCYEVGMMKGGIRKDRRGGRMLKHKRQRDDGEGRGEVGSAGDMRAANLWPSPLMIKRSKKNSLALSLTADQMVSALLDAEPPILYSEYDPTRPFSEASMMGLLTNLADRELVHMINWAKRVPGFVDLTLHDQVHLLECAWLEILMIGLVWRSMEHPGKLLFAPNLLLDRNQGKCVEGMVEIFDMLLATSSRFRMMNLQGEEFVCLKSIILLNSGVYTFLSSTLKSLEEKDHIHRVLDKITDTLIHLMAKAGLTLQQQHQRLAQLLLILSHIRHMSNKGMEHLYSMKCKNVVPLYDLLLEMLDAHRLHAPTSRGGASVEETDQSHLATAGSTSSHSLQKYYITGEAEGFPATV
Experiment: MCF-7 ER down-regulation assay (immuno-fluorescence)
pIC50: −log10 of the molar value.

- record smiles: "COc1ncc(NCCNCCCF)cc1[C@@H]1c2[nH]c3ccccc3c2C[C@@H](C)N1CC(F)(F)F"
  pIC50: 8.22
- record smiles: "C[C@@H]1Cc2c([nH]c3ccccc23)[C@@H](c2cc(OCCNCCCF)ccc2CO)N1CC(F)(F)F"
  pIC50: 6.74
- record smiles: "COc1ccc(OCCNCCC(F)(F)F)cc1[C@@H]1c2[nH]c3ccccc3c2C[C@@H](C)N1CC(F)(F)F"
  pIC50: 9.31
- record smiles: "Cc1c(OCCN(C)CCCF)ncc(F)c1[C@@H]1c2[nH]c3ccc(F)cc3c2C[C@@H](C)N1CCC(=O)O"
  pIC50: 8.85
- record smiles: "Cc1ncc(OCCNCCCF)cc1[C@@H]1c2[nH]c3ccccc3c2C[C@@H](C)N1CC(F)(F)F"
  pIC50: 7.46
- record smiles: "C[C@@H]1Cc2c([nH]c3ccccc23)[C@@H](c2c(F)ccc(OCCNCCCF)c2F)N1CC1(F)CC1"
  pIC50: 9.68
- record smiles: "CC[C@@H]1Cc2c([nH]c3ccccc23)[C@@H](c2c(F)ccc(OCCNCCCF)c2C)N1C[C@H](C)C(=O)O"
  pIC50: 9.41

* * *

Target: recombinant human Estrogen Receptor alpha ligand binding domain (ER alpha-LBD (GST)) (Homo sapiens (Human), UniProt P03372)
Sequence (P03372 307-554): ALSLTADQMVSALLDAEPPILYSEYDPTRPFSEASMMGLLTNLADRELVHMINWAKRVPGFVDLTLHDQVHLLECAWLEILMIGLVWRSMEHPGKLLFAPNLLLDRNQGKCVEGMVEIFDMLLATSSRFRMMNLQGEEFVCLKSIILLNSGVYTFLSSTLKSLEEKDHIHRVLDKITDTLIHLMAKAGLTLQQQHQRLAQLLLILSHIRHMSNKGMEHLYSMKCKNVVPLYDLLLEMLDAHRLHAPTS
Experiment: ERα binding assay (LanthaScreen TR-FRET competition)
quantity measured: log10 of IC50 (log10 of the value in nM)

- compound: "C[C@@H]1Cc2c([nH]c3ccccc23)[C@@H](c2nccc(OCCNCCCF)c2F)N1CC1(F)COC1"
  value reported: 0.72
- compound: "C[C@@H]1Cc2c([nH]c3ccccc23)[C@@H](c2c(F)ccc(OCCNCCCF)c2C(F)F)N1C[C@H](C)C(=O)O"
  value reported: 0.11
- compound: "COc1ccc(OCCNCCCF)c(F)c1[C@@H]1c2[nH]c3ccccc3c2C[C@@H](C)N1CC(F)(F)F"
  value reported: 0.08
- compound: "C[C@@H]1Cc2c([nH]c3ccccc23)[C@@H](c2c(F)ccc(OCCN(C)CCCF)c2F)N1CC1(F)COC1"
  value reported: 0.08
- compound: "C[C@@H]1Cc2c([nH]c3ccccc23)[C@@H](c2nccc(OCCNCCCF)c2F)N1CC(F)F"
  value reported: 0.28
- compound: "Cc1ccc2[nH]c3c(c2c1)C[C@@H](C)N(CC(F)(F)CO)[C@@H]3c1c(F)ccc(OCCNCCCF)c1F"
  value reported: 0.04
- compound: "C[C@@H]1Cc2c([nH]c3ccccc23)[C@@H](c2cc(OCCNCCCF)ncc2F)N1CC(F)(F)F"
  value reported: 0.15
- compound: "Cc1c(N(C)CCNCCCF)ccc(F)c1[C@@H]1c2[nH]c3ccccc3c2C[C@@H](C)N1C[C@H](C)C(=O)O"
  value reported: 0.30
- compound: "C[C@@H](CN1[C@H](c2c(F)ccc(OCCNCCCF)c2Cl)c2[nH]c3ccccc3c2C[C@H]1C(F)F)C(=O)O"
  value reported: 0.20
- compound: "C[C@@H]1Cc2c([nH]c3ccccc23)[C@@H](c2c(F)cnc(OCCNCCCF)c2Cl)N1C[C@H](C)C(=O)O"
  value reported: 0.18
- compound: "COc1cnc(OCCNCCCF)cc1[C@@H]1c2[nH]c3ccccc3c2C[C@@H](C)N1CC(F)(F)F"
  value reported: -0.21
- compound: "C[C@@H]1Cc2c([nH]c3ccccc23)[C@@H](c2c(F)cnc(OCCNCCCF)c2F)N1CC(F)(F)CO"
  value reported: -0.02
- compound: "Cc1c(OCCNCCCF)ncnc1[C@@H]1c2[nH]c3ccccc3c2C[C@@H](C)N1CC(F)(F)F"
  value reported: -0.13
- compound: "CC(CN1[C@H](c2c(Cl)ccc(OCCNCCCF)c2Cl)c2[nH]c3ccc(F)cc3c2C[C@H]1C)C(=O)O (single isomer, unassigned) [Example 130]"
  value reported: 0.26
- compound: "CC[C@@H]1Cc2c([nH]c3ccccc23)[C@@H](c2c(F)ccc(OCCNCCCF)c2C)N1C[C@H](C)C(=O)O"
  value reported: 0.69
- compound: "C[C@@H]1Cc2c([nH]c3ccccc23)[C@@H](c2cc(OCCNCCCF)ncn2)N1CC(F)(F)F"
  value reported: 1.23
- compound: "C[C@@H]1Cc2c([nH]c3ccccc23)[C@@H](c2c(F)c(F)cc(OCCNCCCF)c2F)N1CC(F)(F)F"
  value reported: 0.43
- compound: "Cc1c(OCCNCCCF)ccc(F)c1[C@@H]1c2[nH]c3ccccc3c2C[C@@H](C(F)(F)F)N1C[C@H](C)C(=O)O"
  value reported: 0.15
- compound: "COc1ncc(OCCNCCCF)cc1[C@@H]1c2[nH]c3ccccc3c2C[C@@H](C)N1CC(F)(F)F"
  value reported: 0.41
- compound: "C[C@@H]1Cc2c([nH]c3ccccc23)[C@@H](c2c(F)ccc(OCCNCCCF)c2F)N1CC(F)F"
  value reported: 0.08
- compound: "COc1cc(F)c(OCCNCCCF)cc1[C@@H]1c2[nH]c3ccccc3c2C[C@@H](C)N1CC(F)(F)F"
  value reported: 0.45
- compound: "C[C@@H]1Cc2c([nH]c3c(F)cccc23)[C@@H](c2c(F)ccc(OCCNCCCF)c2F)N1CC(F)(F)CO"
  value reported: -0.08
- compound: "COc1ccc(OCCNCCCF)c(F)c1[C@@H]1c2[nH]c3ccc(F)cc3c2C[C@@H](C)N1CC(F)(F)CO"
  value reported: -0.07
- compound: "Cc1c(OCCNCCCF)ncnc1[C@@H]1c2[nH]c3ccccc3c2C[C@@H](C)N1CC(F)(F)CO"
  value reported: 0.00
- compound: "COc1ccc(O[C@H](C)CNCCCF)cc1[C@@H]1c2[nH]c3ccccc3c2C[C@@H](C)N1CC(F)(F)CO"
  value reported: 0.40
- compound: "C[C@@H]1Cc2c([nH]c3ccc(F)cc23)[C@@H](c2c(F)cnc(OCCN(C)CCCF)c2F)N1CC(F)(F)CO"
  value reported: -0.15
- compound: "Cc1c(OCCN(C)CCCF)ncc(F)c1[C@@H]1c2[nH]c3ccccc3c2C[C@@H](C)N1CCC(=O)O"
  value reported: 0.26
- compound: "C[C@@H]1Cc2c([nH]c3ccccc23)[C@@H](c2c(F)ccc(NCCNCCCF)c2F)N1CC(F)(F)F"
  value reported: 0.34
